The values you see were collected from the supplement of paper PMC7877785.

Each item that follows carries a reported self-splicing fitness (ln).
# assay info: self-splicing fitness, log relative to wild type (ln ratio); higher = more splicing; Tetrahymena group I intron in knt gene, E. coli kanamycin selection, DiMSum; sequences stand for … in CUCUCU…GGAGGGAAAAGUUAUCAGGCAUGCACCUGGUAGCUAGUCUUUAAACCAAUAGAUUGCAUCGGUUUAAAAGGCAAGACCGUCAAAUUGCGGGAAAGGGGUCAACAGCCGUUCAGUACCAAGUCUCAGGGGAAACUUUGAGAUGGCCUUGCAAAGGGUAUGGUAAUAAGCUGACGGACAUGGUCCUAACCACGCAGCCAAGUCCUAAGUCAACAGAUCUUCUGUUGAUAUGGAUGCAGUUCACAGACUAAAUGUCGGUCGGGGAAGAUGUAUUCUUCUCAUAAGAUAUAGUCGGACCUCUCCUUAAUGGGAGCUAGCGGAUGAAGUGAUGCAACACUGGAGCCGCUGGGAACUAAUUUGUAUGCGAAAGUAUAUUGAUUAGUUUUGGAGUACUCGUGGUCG;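 further: selection with 25 µg/mL kanamycin versus none on LB agar overnight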
# condition description: 30 °C
metric: self-splicing fitness (ln)

> print(dat)
        record.sequence  result
1  GAGCAGCAAUAUUACGGAUG   -3.85
2  GACUAGCAAUAUUACGGAAU   -2.12
3  ACUAAGCAAUAUUACGGCGA  -0.131

* * *

# assay info: self-splicing fitness, log relative to wild type (ln ratio); higher = more splicing; Tetrahymena group I intron in knt gene, E. coli kanamycin selection, DiMSum; sequences stand for … in CUCUCU…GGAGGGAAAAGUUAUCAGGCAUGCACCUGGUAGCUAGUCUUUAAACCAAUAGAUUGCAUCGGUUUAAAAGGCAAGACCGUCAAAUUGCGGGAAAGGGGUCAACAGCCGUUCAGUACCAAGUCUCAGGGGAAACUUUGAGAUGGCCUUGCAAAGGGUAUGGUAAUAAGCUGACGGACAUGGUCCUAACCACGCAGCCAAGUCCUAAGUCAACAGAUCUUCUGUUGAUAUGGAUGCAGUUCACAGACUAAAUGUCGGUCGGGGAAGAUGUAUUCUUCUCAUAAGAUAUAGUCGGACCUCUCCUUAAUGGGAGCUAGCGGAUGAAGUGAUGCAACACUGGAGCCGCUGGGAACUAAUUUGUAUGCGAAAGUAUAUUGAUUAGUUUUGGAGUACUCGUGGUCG
# condition description: 30 °C
metric: self-splicing fitness (ln)

> print(dat)
         record.sequence  result
 1  CGAUAGCAAUAUUACGAGCG  -0.984
 2  UUCAAGCAAUAUUACGGGGU   -3.57
 3  UAUUAGCAAUAUUACGAGUG  -0.139
 4  UAUAAGCAAUAUUACGCCAG  -0.478
 5  UUGCAGCAAUAUUACGGGUC   -2.73
 6  CAGCAGCAAUAUUACGAGUG   -1.54
 7  AUUGAGCAAUAUUACGAAAG   -2.69
 8  UCAAAGCAAUAUUACGCGCU   -3.63
 9  GCGAAGCAAUAUUACGGGUG   -1.77
10  GCAGAGCAAUAUUACGGCAA   -3.59
11  UACGAGCAAUAUUACGGCAU   -3.45
12  GAUGAGCAAUAUUACGUUUU   -3.82
13  AAGGAGCAAUAUUACGUGCC   -3.03
14  CGGCAGCAAUAUUACGACCC  -0.681
15  AACCAGCAAUAUUACGUCUA  -0.091
16  CCAGAGCAAUAUUACGCCGU   -4.04
17  CGUUAGCAAUAUUACGGAUG   -1.85
18  GGGCAGCAAUAUUACGAGUU   -2.81
19  GUGGAGCAAUAUUACGAUAC   -1.47
20  ACAUAGCAAUAUUACGGCAG   -1.29
21  UUGAAGCAAUAUUACGCAGU    -1.2
22  AAGGAGCAAUAUUACGUACU  -0.884
23  UAGGAGCAAUAUUACGAGGC   -2.87
24  AGUAAGCAAUAUUACGGGAC   -3.47
25  CUGAAGCAAUAUUACGUGAU    -2.7
26  GCGCAGCAAUAUUACGUAAA   0.442
27  UCUGAGCAAUAUUACGGAUU   -3.51
28  UAGAAGCAAUAUUACGUCCU  -0.903
29  CCGAAGCAAUAUUACGGUCA   -3.56
30  CGCAAGCAAUAUUACGGCUC   -1.94
31  CAUAAGCAAUAUUACGUUUU   -4.55
32  GCGGAGCAAUAUUACGCGUC   -3.26
33  AGGUAGCAAUAUUACGGCCA   0.159
34  UUGCAGCAAUAUUACGGGAU   -3.42
35  AUAUAGCAAUAUUACGACUC  -0.877
36  ACAGAGCAAUAUUACGGUGU    -3.8
37  GCUGAGCAAUAUUACGGCUU   -2.37
38  GUGAAGCAAUAUUACGACGG  -0.531
39  CCCAAGCAAUAUUACGAAAU   -3.19
40  UUGCAGCAAUAUUACGGCUA   0.128
41  GUGAAGCAAUAUUACGCCCC  -0.362
42  GUACAGCAAUAUUACGAUGC   -1.03
43  CAUCAGCAAUAUUACGCGUA  -0.586
44  CCGCAGCAAUAUUACGUACC    -3.7
45  UGGGAGCAAUAUUACGACAA   -2.75
46  GCGUAGCAAUAUUACGCACU   -3.02
47  GGUCAGCAAUAUUACGGAGC    -1.4
48  UUGCAGCAAUAUUACGCUAA   -1.12
49  CCUAAGCAAUAUUACGACCU   -3.17
50  CACUAGCAAUAUUACGACGA   -2.06
51  UCACAGCAAUAUUACGUAUC   -4.32
52  CAUUAGCAAUAUUACGGGAC   -3.64
53  UGUUAGCAAUAUUACGACAA  -0.407
54  GGAUAGCAAUAUUACGGAGG   -3.06
55  UACUAGCAAUAUUACGCAGG   -1.77
